Origin of the recorded values: patent US12257252B2

- method_description: Food effect on sepiapterin: plasma sepiapterin and BH4 in fasted and fed subjects
- Format: in vivo
- run_parameters: human, plasma; fasted; sepiapterin 10 mg/kg oral; 12 h; read-out: Minimum sepiapterin concentration in plasma

| molecule | concentration at 12 h / nM |
| --- | --- |
| C[C@H](O)C(=O)C1=Nc2c(nc(N)[nH]c2=O)NC1 [sepiapterin, Sepiapterin] | 0 |

---

- method_description: Food effect on sepiapterin: plasma sepiapterin and BH4 in fasted and fed subjects
- Format: in vivo
- run_parameters: human, plasma; fasted; sepiapterin 10 mg/kg oral; 0 h (predose); read-out: Minimum sepiapterin concentration in plasma
parameter_measured: concentration at 0 h

| compound | observed_result |
| --- | --- |
| C[C@H](O)C(=O)C1=Nc2c(nc(N)[nH]c2=O)NC1 [sepiapterin, Sepiapterin] | 0 nM |
